Source of measurements: patent US10975101B2

System: L1210 (mouse lymphocytic leukemia) cells
Assay: Cell growth inhibition assay, L1210
Format: cell-based
Conditions: 72 hours incubation, phosphatase assay
Protocol: Compounds were tested for their cell growth inhibition of L1210 (ATCC no. CCL-219, mouse lymphocytic leukemia) cells, HCT116 (ATCC no. CCL-247, human colorectal carcinoma) cells, and HCT116/VM46 (a vinblastine-resistant strain of HCT116) cells in culture. […]
pIC50: −log10 of the molar value.
Returns one of MET or NOT MET; MET when pIC50 is >= 9.

INSERT INTO measurements (smiles_text, assigned_class) VALUES
  ('CC[C@]1(NC(=O)N2Cc3ccc(NC(=O)c4cnccn4)cc3C2)C[C@H]2CN(CCc3c([nH]c4ccccc34)[C@@](C(=O)OC)(c3cc4c(cc3OC)N(C)[C@H]3[C@@](O)(C(=O)OC)[C@H](OC(C)=O)[C@]5(CC)C=CCN6CC[C@]43[C@@H]65)C2)C1', 'MET'),
  ('CCCCCC(=O)Nc1ccc2c(c1)CN(C(=O)N[C@@]1(CC)C[C@H]3CN(CCc4c([nH]c5ccccc45)[C@@](C(=O)OC)(c4cc5c(cc4OC)N(C)[C@H]4[C@@](O)(C(=O)OC)[C@H](OC(C)=O)[C@]6(CC)C=CCN7CC[C@]54[C@@H]76)C3)C1)C2', 'MET'),
  ('CC[C@]1(NC(=O)N2CCCCCC2)C[C@H]2CN(CCc3c([nH]c4ccccc34)[C@@](C(=O)OC)(c3cc4c(cc3OC)N(C)[C@H]3[C@@](O)(C(=O)OC)[C@H](OC(C)=O)[C@]5(CC)C=CCN6CC[C@]43[C@@H]65)C2)C1', 'NOT MET'),
  ('CC[C@]1(NC(=O)N2Cc3ccc(NC(=O)c4ccc(-c5ccccc5)cc4)cc3C2)C[C@H]2CN(CCc3c([nH]c4ccccc34)[C@@](C(=O)OC)(c3cc4c(cc3OC)N(C)[C@H]3[C@@](O)(C(=O)OC)[C@H](OC(C)=O)[C@]5(CC)C=CCN6CC[C@]43[C@@H]65)C2)C1', 'NOT MET'),
  ('CC[C@]1(NC(=O)N2Cc3ccc(NC(=O)c4cccnn4)cc3C2)C[C@H]2CN(CCc3c([nH]c4ccccc34)[C@@](C(=O)OC)(c3cc4c(cc3OC)N(C)[C@H]3[C@@](O)(C(=O)OC)[C@H](OC(C)=O)[C@]5(CC)C=CCN6CC[C@]43[C@@H]65)C2)C1', 'MET'),
  ('CC[C@]1(NC(=O)N2Cc3ccc(NC(=O)C(C)C)cc3C2)C[C@H]2CN(CCc3c([nH]c4ccccc34)[C@@](C(=O)OC)(c3cc4c(cc3OC)N(C)[C@H]3[C@@](O)(C(=O)OC)[C@H](OC(C)=O)[C@]5(CC)C=CCN6CC[C@]43[C@@H]65)C2)C1', 'MET');
